protocol text: Pharmacokinetic test in rats (intravenous injection and oral administration)
Type: in vivo, S.D. male rats
condition context: rat, blood, rats, mean ± error; read-out: Elimination Half-life (converted)
Procedure: S.D. male rats weighing 200±20 g which had fasted overnight were subjected to cannulation at their femoral veins and arteries. […] The mixture was centrifuged (15,000 rpm, 5 min., 4° C.) to obtain quantitative amount of the supernatant which was then subjected to HPLC in Diode Array Detector at 254 nm to analyse the concentration of the test compound in the blood.

# test smiles, half-life, h
data = [
    ("CCn1c(CC[C@@H]2CCCN2C(=O)[C@H]2CCCN2CC(=O)O)cc2ccc(C(=N)N)cc21", 1.07),
]

----------
protocol text: Pharmacokinetic test in rats (intravenous injection and oral administration)
Format: in vivo, S.D. male rats
condition context: rat, blood, po, 100 mg/kg, rats, oral 100 mg/kg, 2.000 h

# compound, concentration at 2 h
records = [
    ("CCn1c(CC[C@@H]2CCCN2C(=O)[C@H]2CCCN2CC(=O)O)cc2ccc(C(=N)N)cc21 [Compound 88]", "178 ng/mL"),
]

----------
measurement target: human thrombin (Homo sapiens, UniProt P00734)
Construct: purchased Sigma T-6759
protocol text: Inhibitory activity for thrombin (chromogenic substrate hydrolysis, 405 nm)
Type: biochemical
condition context: IC50 for trypsin divided by IC50 for thrombin
Recorded Selectivity (trypsin/thrombin) values for a group of compounds are listed next.

# compound, Selectivity (trypsin/thrombin)
rows = [
    ("CCn1c(CCC2CCCN2C(=O)C2CCCN2C(=O)CC(NS(C)(=O)=O)C(N)=O)cc2ccc(C(=N)N)cc21 (centres unmarked)", 45.0),
    ("CCOC(=O)C1CCCN1CC(=O)N1CCC[C@H]1CCc1cc2ccc(C(=N)N)cc2n1CC (some centres unmarked)", 14.4),
    ("CCn1c(CC[C@@H]2CCCN2C(=O)CN(C2CC2)S(C)(=O)=O)cc2ccc(C(=N)N)cc21", 17.4),
    ("CCn1c(CC[C@@H]2CCCN2C(=O)[C@H]2CCCN2C(=O)CCCN)cc2ccc(C(=N)N)cc21", 18.6),
    ("CCOC(=O)CCC(=O)N1CCC[C@@H]1C(=O)N1CCC[C@H]1CCc1cc2ccc(C(=N)N)cc2n1CC", 20.7),
    ("CCn1c(CC[C@@H]2CCCN2C(=O)Cc2ccccc2C(=O)O)cc2ccc(C(=N)N)cc21", 83.6),
    ("CCn1c(CC[C@@H]2CCCN2C(=O)[C@H]2CCCN2CCCCCC(=O)O)cc2ccc(C(=N)N)cc21", 14.7),
    ("CCn1c(CC[C@@H]2CCCN2C(=O)[C@H]2CCCN2C(=O)CCC(=O)O)cc2ccc(C(=N)N)cc21", 26.6),
    ("CCOC(=O)[C@H](C)NC(=O)CN1CCC[C@@H]1C(=O)N1CCC[C@H]1CCc1cc2ccc(C(=N)N)cc2n1CC", 27.4),
    ("CCOC(=O)C(CC)N1CCC[C@@H]1C(=O)N1CCC[C@H]1CCc1cc2ccc(C(=N)N)cc2n1CC (some centres unmarked)", 38.6),
    ("CCn1c(CC[C@@H]2CCCN2C(=O)CC2CCCC2)cc2ccc(C(=N)N)cc21", 40.3),
    ("CCn1c(CC[C@@H]2CCCN2C(=O)C(c2ccccc2)C2CCCC2)cc2ccc(C(=N)N)cc21 (some centres unmarked)", 46.6),
    ("CCOC(=O)CC(NC1CC1)C(=O)N1CCC[C@H]1CCc1cc2ccc(C(=N)N)cc2n1CC (some centres unmarked)", 13.6),
    ("CCn1c(CC[C@@H]2CCCN2C(=O)[C@H]2CCCN2C2CCOC2=O)cc2ccc(C(=N)N)cc21 (some centres unmarked)", 34.7),
    ("CCn1c(CCC2CCCN2C(=O)C2CCCN2C(CCO)C(=O)O)cc2ccc(C(=N)N)cc21 (centres unmarked)", 14.5),
    ("CCn1c(CC[C@@H]2CCCN2C(=O)[C@H]2CCCN2C(=O)C[C@H](N)C(=O)O)cc2ccc(C(=N)N)cc21", 48.9),
    ("CCn1c(CC[C@@H]2CCCN2C(=O)[C@H]2CCCN2C(C)=O)cc2ccc(C(=N)N)cc21", 35.1),
    ("CCOC(=O)CN1CCC[C@@H]1C(=O)N1CCC[C@H]1CCc1cc2ccc(C(=N)N)cc2n1CC", 25.0),
    ("CC(=O)N1CCC[C@@H]1C(=O)N1CCC[C@H]1CCc1cc2ccc(C(=N)N)cc2n1C", 31.9),
    ("CCn1c(CC[C@@H]2CCCN2C(=O)[C@H]2CCCN2C(=O)[C@@H](N)CC(N)=O)cc2ccc(C(=N)N)cc21", 19.2),
    ("CCn1c(CC[C@@H]2CCCN2Cc2c(C(N)=O)sc3ccccc23)cc2ccc(C(=N)N)cc21", 48.6),
    ("CCOC(=O)CN[C@@H](C(=O)N1CCC[C@H]1CCc1cc2ccc(C(=N)N)cc2n1CC)c1ccccc1", 24.2),
    ("CCOC(=O)CN1CCC[C@@H]1C(=O)N1CCC[C@H]1CCc1cc2ccc(C(=N)N)cc2n1C", 87.0),
    ("CCOC(=O)C(C(=O)N1CCC[C@H]1CCc1cc2ccc(C(=N)N)cc2n1CC)C1CCCC1 (some centres unmarked)", 33.9),
    ("CCn1c(CC[C@@H]2CCCN2C(=O)[C@H]2CCCN2S(C)(=O)=O)cc2ccc(C(=N)N)cc21", 57.9),
    ("CCn1c(CC[C@@H]2CCCN2C(=O)[C@H]2CCCN2C(=O)C[C@H](N)C(N)=O)cc2ccc(C(=N)N)cc21", 25.0),
    ("CCOC(=O)CN(C1CC1)C(C)C(=O)N1CCC[C@H]1CCc1cc2ccc(C(=N)N)cc2n1CC (some centres unmarked)", 22.9),
    ("CCn1c(CC[C@@H]2CCCN2C(=O)[C@H]2CCCN2C(=O)[C@H](C)NS(C)(=O)=O)cc2ccc(C(=N)N)cc21", 21.0),
    ("CCn1c(CC[C@@H]2CCCN2C(=O)[C@H]2CCCN2C(=O)C[C@H](NS(C)(=O)=O)C(=O)O)cc2ccc(C(=N)N)cc21", 25.6),
]

----------
Test system: trypsin
protocol text: Inhibitory activity for trypsin
Format: biochemical
Threshold-based label: IC50 under 400 nM gives class 1, IC50 not under 400 nM gives class 0.

# molecule, category
records = [
    ("CCOC(=O)CN[C@@H](C(=O)N1CCC[C@H]1CCc1cc2ccc(C(=N)N)cc2n1CC)c1ccccc1", "class 1"),
    ("CCn1c(CC[C@@H]2CCCN2C(=O)[C@H]2CCCN2C(CCO)C(N)=O)cc2ccc(C(=N)N)cc21 (stereo partly drawn)", "class 0"),
    ("CCn1c(CC[C@@H]2CCCN2C(=O)[C@H]2CCCN2C(=O)CCCN)cc2ccc(C(=N)N)cc21", "class 0"),
    ("CCn1c(CCC2CCCN2C(=O)C2CCCN2C(=O)CC(NS(C)(=O)=O)C(N)=O)cc2ccc(C(=N)N)cc21 (stereo not drawn)", "class 1"),
    ("CCn1c(CC[C@@H]2CCCN2C(=O)[C@H]2CCCN2C(=O)CCN)cc2ccc(C(=N)N)cc21", "class 1"),
    ("CCOC(=O)C(C(=O)N1CCC[C@H]1CCc1cc2ccc(C(=N)N)cc2n1CC)C1CCCC1 (stereo partly drawn)", "class 1"),
    ("CCn1c(CC[C@@H]2CCCN2C(=O)[C@H]2CCCN2C2CCOC2=O)cc2ccc(C(=N)N)cc21 (stereo partly drawn)", "class 0"),
    ("CCn1c(CC[C@@H]2CCCN2C(=O)[C@H]2CCCN2S(C)(=O)=O)cc2ccc(C(=N)N)cc21", "class 0"),
    ("CCn1c(CC[C@@H]2CCCN2C(=O)[C@H]2CCCN2C(=O)C2CCCCN2)cc2ccc(C(=N)N)cc21 (stereo partly drawn)", "class 1"),
    ("CCn1c(CC[C@@H]2CCCN2C(=O)Cc2cccc(Cl)c2)cc2ccc(C(=N)N)cc21", "class 0"),
    ("CCn1c(CC[C@@H]2CCCN2C(=O)CN(C2CC2)S(C)(=O)=O)cc2ccc(C(=N)N)cc21", "class 1"),
    ("CCn1c(CC[C@@H]2CCCN2C(=O)C(c2ccccc2)C2CCCC2)cc2ccc(C(=N)N)cc21 (stereo partly drawn)", "class 0"),
    ("CCn1c(CC[C@@H]2CCCN2C(=O)[C@H]2CCCN2C(=O)[C@H](C)NS(C)(=O)=O)cc2ccc(C(=N)N)cc21", "class 0"),
    ("CCn1c(CC[C@@H]2CCCN2C(=O)[C@H]2CCCN2C(=O)CC(C)O)cc2ccc(C(=N)N)cc21 (stereo partly drawn)", "class 1"),
]
